Measured fold change of affinity, listed per entry for reference.
molecular target: Human CD137 ECD (human); assay: single mutant vs template dBBDu183H
Sequence (chain, as listed by the source limits assumed): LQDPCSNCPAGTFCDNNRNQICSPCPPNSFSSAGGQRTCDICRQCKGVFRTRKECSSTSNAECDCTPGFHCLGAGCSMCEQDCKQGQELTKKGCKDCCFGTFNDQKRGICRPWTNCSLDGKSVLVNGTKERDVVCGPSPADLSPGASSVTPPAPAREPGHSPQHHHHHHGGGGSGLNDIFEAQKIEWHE

H183/L072 VH F100gP (antibody, name in Kabat numbering, V domains shown) VH: QVQLVESGGGLVQPGRSLRLSCAASGFTFSNAWMHWVRQAPGKGLEWVAQIKDKGNAYAAYYAPSVKGRFTISRDDSKNSIYLQMNSLKTEDTAVYYCHYVHYASASTVLPAPGVDAWGQGTTVTVSS VL: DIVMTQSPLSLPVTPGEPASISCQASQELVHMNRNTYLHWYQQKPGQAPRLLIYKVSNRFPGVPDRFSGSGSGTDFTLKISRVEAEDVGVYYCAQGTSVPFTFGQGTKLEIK ... 0 fold

Consider the record given below.
Query block: fold change of affinity for H183/L072 VH D52aR (antibody, name in Kabat numbering, V domains shown) VH: QVQLVESGGGLVQPGRSLRLSCAASGFTFSNAWMHWVRQAPGKGLEWVAQIKRKGNAYAAYYAPSVKGRFTISRDDSKNSIYLQMNSLKTEDTAVYYCHYVHYASASTVLPAFGVDAWGQGTTVTVSS VL: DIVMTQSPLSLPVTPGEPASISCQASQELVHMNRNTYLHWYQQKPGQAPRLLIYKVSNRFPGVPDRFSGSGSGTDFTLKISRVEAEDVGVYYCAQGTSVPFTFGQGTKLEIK ?
Result block: 0 fold
